# target.or.test.system: BMP(A328V), heme domain of P450BM-3 A328V mutant (Priestia megaterium, UniProt P14779, A329V)
# Sequence (P14779 2-472 A329V): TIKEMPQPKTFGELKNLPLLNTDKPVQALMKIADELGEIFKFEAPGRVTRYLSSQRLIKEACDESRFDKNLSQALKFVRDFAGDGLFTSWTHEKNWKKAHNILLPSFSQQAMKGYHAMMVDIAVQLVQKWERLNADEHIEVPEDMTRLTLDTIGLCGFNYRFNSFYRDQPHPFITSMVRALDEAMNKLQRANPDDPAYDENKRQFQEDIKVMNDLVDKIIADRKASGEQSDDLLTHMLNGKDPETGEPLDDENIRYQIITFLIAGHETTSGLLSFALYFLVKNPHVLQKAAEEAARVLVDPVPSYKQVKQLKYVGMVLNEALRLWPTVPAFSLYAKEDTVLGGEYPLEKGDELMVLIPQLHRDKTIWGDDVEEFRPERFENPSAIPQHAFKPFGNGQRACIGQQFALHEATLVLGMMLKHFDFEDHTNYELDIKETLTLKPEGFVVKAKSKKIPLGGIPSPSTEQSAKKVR
# assay.comment: Substrate dissociation constants by UV-vis spectral titration, A328V heme domain
# Type: binding, Bacillus megaterium
measurement.label: Kd (nM)
One number for each entry, in nM.

[ask] Kd for CCCCCCCCCCCCCCCC(=O)O [Palmitate, palmitic acid] ?
[reply] 160

====

# target.or.test.system: BMP(A328V), heme domain of P450BM-3 A328V mutant (Priestia megaterium, UniProt P14779, A329V)
# assay.comment: Substrate dissociation constants by UV-vis spectral titration, A328V heme domain
# Assay type: binding, Bacillus megaterium
# experimental.parameters: read-out: BMP(A328V) Dissociation Constant; 50 mM KPi pH 7.4, room temperature, 1 μM P450, UV-vis titration
Please go through the items and note down their Kd.

Known results for compounds:
| compound | Kd |
| --- | --- |
| CCCCCCCCCCCCCCCC(=O)N[C@@H](CCSC)C(=O)O | < 30 nM |
| CCCCCCCCCCCCCCCC(=O)N[C@@H](CCC(=O)O)C(=O)O [PalmGlu, N-palmitoyl-L-glutamate] | 410 nM |
| CCCCCCCCCCCCCCCC(=O)NCC(=O)O | 45 nM |
| CCCCCCCCCCCCCCCC(=O)N[C@@H](CC(C)C)C(=O)O | < 30 nM |

Now look at this entry.
[ask] Kd lookup needed for CCCCCCCCCCCCCCCC(=O)N[C@@H](CCC(N)=O)C(=O)O , thanks.
[reply] 74 nM

====

# target.or.test.system: BMP(A328V), heme domain of P450BM-3 A328V mutant (Priestia megaterium, UniProt P14779, A329V)
# assay.comment: Substrate dissociation constants by UV-vis spectral titration, A328V heme domain
# Format: binding, Bacillus megaterium
# experimental.parameters: ratio of BMP(wt) KD to BMP(A328V) KD
measurement.label: Fold Enhancement of substrate affinity, A328V versus wild type
One number for each entry.

Record Fold Enhancement of substrate affinity, A328V versus wild type per entry; entries follow.
1. CCCCCCCCCCCCCCCC(=O)O [Palmitate, palmitic acid]
2. CCCCCCCCCCCCCCCC(=O)N[C@@H](CCC(N)=O)C(=O)O [PalmGln, N-palmitoyl-L-glutamine]
3. CCCCCCCCCCCCCCCC(=O)NCC(=O)O [PalmGly, N-palmitoylglycine]
4. CCCCCCCCCCCCCCCC(=O)N[C@@H](CCC(=O)O)C(=O)O [PalmGlu, N-palmitoyl-L-glutamate]

[reply]
1. 8.1
2. 2.7
3. 7.1
4. 9.0

====

I'd be grateful if you could share measured BM-3(wt) turnover rate for these entries.
# target.or.test.system: BM-3(wt), wild-type P450BM-3 (Priestia megaterium)
# Sequence (P14779 whole entry): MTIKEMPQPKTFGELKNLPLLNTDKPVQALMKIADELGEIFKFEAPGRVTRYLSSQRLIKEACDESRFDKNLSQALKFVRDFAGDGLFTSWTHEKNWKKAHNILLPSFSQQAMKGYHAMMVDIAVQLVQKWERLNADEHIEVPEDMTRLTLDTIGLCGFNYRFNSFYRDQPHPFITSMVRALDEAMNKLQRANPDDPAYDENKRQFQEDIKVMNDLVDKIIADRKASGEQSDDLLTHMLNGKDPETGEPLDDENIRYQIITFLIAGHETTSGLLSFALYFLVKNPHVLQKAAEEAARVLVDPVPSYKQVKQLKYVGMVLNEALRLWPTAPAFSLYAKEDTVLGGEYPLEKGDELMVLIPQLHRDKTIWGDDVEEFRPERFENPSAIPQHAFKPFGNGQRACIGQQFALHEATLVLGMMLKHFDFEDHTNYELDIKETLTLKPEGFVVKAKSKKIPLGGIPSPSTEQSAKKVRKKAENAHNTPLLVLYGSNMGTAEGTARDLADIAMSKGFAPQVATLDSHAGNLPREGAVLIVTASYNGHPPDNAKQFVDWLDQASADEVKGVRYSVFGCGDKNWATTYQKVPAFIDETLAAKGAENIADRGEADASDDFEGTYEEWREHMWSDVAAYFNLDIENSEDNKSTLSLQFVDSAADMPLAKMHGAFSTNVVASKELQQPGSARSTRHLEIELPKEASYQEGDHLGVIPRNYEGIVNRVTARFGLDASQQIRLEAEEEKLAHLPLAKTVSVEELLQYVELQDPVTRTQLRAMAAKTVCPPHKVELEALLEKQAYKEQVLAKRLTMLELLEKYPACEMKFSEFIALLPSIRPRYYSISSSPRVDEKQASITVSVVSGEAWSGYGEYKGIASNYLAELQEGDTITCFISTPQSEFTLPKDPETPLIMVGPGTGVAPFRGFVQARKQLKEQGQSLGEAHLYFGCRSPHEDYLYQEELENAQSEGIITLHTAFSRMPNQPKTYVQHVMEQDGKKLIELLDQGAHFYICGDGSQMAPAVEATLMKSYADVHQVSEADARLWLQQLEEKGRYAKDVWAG
# assay.comment: Steady-state turnover, products quantified by GC-MS, wild-type holoenzyme
# Assay type: biochemical, Bacillus megaterium
# experimental.parameters: 50 nM enzyme, 250 μM substrate, 50 mM KPi pH 7.4, 25°C

The examples below pair each entry with its known result.
| molecule | measurement.label | measured.result |
| --- | --- | --- |
| CCCCCCCCCCCCCCCC(=O)NCC(=O)O [PalmGly, N-palmitoylglycine] | BM-3(wt) turnover rate | 1875 ± 30 μmol/min/μmol |
| CCCCCCCCCCCCCCCC(=O)N[C@@H](CCC(N)=O)C(=O)O [PalmGln, N-palmitoyl-L-glutamine] | BM-3(wt) turnover rate | 610 ± 25 μmol/min/μmol |
| CCCCCCCCCCCCCCCC(=O)N[C@@H](CCSC)C(=O)O [PalmMet, N-palmitoyl-L-methionine] | BM-3(wt) turnover rate | 1690 ± 75 μmol/min/μmol |

Would you mind giving BM-3(wt) turnover rate for every molecule in the list below?
1. CCCCCCCCCCCCCCCC(=O)N[C@@H](CCC(=O)O)C(=O)O [PalmGlu, N-palmitoyl-L-glutamate]
2. CCCCCCCCCCCCCCCC(=O)O [Palmitate, palmitic acid]
3. CCCCCCCCCCCCCCCC(=O)N[C@@H](CC(C)C)C(=O)O [PalmLeu]

[reply]
["485 ± 15 μmol/min/μmol", "1480 ± 35 μmol/min/μmol", "1155 ± 20 μmol/min/μmol"]
